Provide the recorded ELISA fold over background for the entries that follow.
biological target: COVID S1 RBD Fc fusion (Antigen 1) (SARS-CoV-2, UniProt P0DTC2 319-541); assay: phage ELISA
Give bare numbers, in fold.

SARS-CoV-2 variant 1-48 (antibody, V domains shown) VH: EVQLLESGGGLVQPGGSLRLSCAASGFTFSSHAMYWVRQAPGKGLEWVSAISGSAGSTYYADSVKGRFTISRDNSKNTLYLQMNSLRAEDTAVYYCAHDTKDFWSGYCIFDPWGQGTLVTVSS VL: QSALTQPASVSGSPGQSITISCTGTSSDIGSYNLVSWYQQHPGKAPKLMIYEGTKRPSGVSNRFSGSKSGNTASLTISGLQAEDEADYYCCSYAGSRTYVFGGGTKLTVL    2.1
SARS-CoV-2 variant 1-24 (antibody, V domains shown) VH: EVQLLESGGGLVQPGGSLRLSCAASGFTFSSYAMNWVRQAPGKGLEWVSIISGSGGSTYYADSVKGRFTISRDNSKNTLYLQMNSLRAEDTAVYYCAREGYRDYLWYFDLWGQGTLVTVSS VL: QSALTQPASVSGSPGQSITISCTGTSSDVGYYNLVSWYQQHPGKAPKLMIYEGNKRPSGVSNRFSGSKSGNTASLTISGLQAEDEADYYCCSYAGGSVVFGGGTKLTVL    11
SARS-CoV-2 variant 1-23 (antibody, V domains shown) VH: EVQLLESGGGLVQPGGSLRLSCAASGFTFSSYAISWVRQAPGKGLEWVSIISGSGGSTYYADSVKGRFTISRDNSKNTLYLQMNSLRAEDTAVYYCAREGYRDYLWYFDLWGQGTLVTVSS VL: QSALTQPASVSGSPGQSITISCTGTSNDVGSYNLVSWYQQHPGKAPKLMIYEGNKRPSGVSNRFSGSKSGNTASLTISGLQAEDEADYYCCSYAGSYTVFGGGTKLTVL    3.6

For each of the binders below, state ELISA fold over background.
1. SARS-CoV-2 variant 1-25 (antibody, V domains shown) VH: EVQLLESGGGLVQPGGSLRLSCAASGFTFSDYAMNWVRQAPGKGLEWVSIISGSGGSTYYADSVKGRFTISRDNSKNTLYLQMNSLRAEDTAVYYCAREGYRDYLWYFDLWGQGTLVTVSS VL: QSALTQPASVSGSPGQSITISCSGTSSDVGSYNLVSWYQQHPGKAPKLMIYEASKRPSGVSNRFSGSKSGNTASLTISGLQAEDEADYYCCSYAGSSTVFGGGTKLTVL
2. SARS-CoV-2 variant 1-10 (antibody, V domains shown) VH: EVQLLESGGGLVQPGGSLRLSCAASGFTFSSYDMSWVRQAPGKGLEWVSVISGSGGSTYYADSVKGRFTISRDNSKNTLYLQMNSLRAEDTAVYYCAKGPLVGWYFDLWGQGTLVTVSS VL: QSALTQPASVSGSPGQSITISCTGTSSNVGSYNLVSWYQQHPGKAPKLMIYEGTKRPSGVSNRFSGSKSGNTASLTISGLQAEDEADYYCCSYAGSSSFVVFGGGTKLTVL
3. SARS-CoV-2 variant 1-27 (antibody, V domains shown) VH: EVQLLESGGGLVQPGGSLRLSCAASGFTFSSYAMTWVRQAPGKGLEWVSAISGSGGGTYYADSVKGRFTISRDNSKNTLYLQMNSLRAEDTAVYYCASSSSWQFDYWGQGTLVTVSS VL: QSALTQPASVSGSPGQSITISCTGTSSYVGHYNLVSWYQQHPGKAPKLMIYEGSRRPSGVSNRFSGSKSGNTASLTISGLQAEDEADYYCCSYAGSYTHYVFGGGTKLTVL
4. SARS-CoV-2 variant 1-7 (antibody, V domains shown) VH: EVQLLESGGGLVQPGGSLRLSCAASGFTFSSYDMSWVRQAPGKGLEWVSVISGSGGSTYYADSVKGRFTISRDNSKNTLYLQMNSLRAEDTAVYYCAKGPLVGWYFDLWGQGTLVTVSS VL: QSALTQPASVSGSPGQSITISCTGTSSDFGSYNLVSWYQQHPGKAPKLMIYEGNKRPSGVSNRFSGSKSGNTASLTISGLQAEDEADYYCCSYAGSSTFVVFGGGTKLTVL
5. SARS-CoV-2 variant 1-35 (antibody, V domains shown) VH: EVQLLESGGGLVQPGGSLRLSCAASGFTFSNYAMSWVRQAPGKGLEWVSDISGSGGSTYYADSVKGRFTISRDNSKNTLYLQMNSLRAEDTAVYYCVKGTIPIFGVIRSAFDYWGQGTLVTVSS VL: QSALTQPASVSGSPGQSITISCTGTSSDVGSYSLVSWYQQHPGKAPKLMIYEGTKRPSGVSNRFSGSKSGNTASLTISGLQAEDEADYYCCSYAGSYSYVVFGGGTKLTVL
6. SARS-CoV-2 variant 1-36 (antibody, V domains shown) VH: EVQLLESGGGLVQPGGSLRLSCAASGLTFSSYAMSWVRQAPGKGLEWVSDISGSGGSTYYADSVKGRFTISRDNSKNTLYLQMNSLRAEDTAVYYCVKGTIPIFGVIRSAFDYWGQGTLVTVSS VL: QSALTQPASVSGSPGQSITISCTGTSSDVGSYSLVSWYQQHPGKAPKLMIYEGDKRPSGVSNRFSGSKSGNTASLTISGLQAEDEADYYCCSYAGSYSYVVFGGGTKLTVL

Return:
1. 2.7
2. 17.4
3. 1.9
4. 3.3
5. 1.8
6. 1.2
